# Tested on: MS2 coat protein
# protocol-text: apparent KD of MS2 coat protein; designed switch direction (-1 OFF switch, 1 ON switch): -1; higher = weaker reporter binding
# reported-conditions: Eterna round: R95; input ligand: microRNA oligo, concentration not stated
reported-property: apparent KD of MS2 coat protein (nM)
Please reply with the bare figure in nM and do not write the unit itself.

Look over these answered cases.
Req: Return reported apparent KD of MS2 coat protein; argument: AAUUCACAUGAGGAUCACCCAUGUCAGGAUAUGCUGACGCGGGUUUCGGUGCGUGUUGGCAGAAGGGACAGCUA (puzzle: Exclusion 1)
Resp: 144

Req: Now consider GGUCGGCGAGGAUAUACAUGAGGAUCACCCAUGUGAUAGAGUGCACGCGUACGUGUACGUAGAAGGCGCUGACG [JL-ex3-3.28 salish99 mod] (puzzle: Exclusion 3) and answer again.
Resp: 13.2

Req: Continue with CCAUCGAGUGUGAGGAUAUGCUGGUCCAUAGAUCAGCAGAAGGCACAUGAGGAUCACCCAUGUGGAGACGGUGG [Mat - Exclusion 4 - JL Mod - D78] (puzzle: Brourd's mod of Exclusion 4)
Resp: 34.4

Req: Then what about the sequence UGAUCUUGGGUCAGGAUAUGCUGGUAUUUUUGCCAGCAGAAGGGACAUGAGGAUCACCCAUGUUCUUGGUUUUU [Magic-14] (puzzle: Brourd's mod of Exclusion 4) ?
Resp: 10.4

Req: Next entry: GUAAAGUGAGGAUAUGGUAAAGUAAGUAUUUAGUAAGUAAUCCAGAAGGCACAUGAGGAUCACCCAUGUAAAUG [Mat - Exclusion 4 - D98] (puzzle: Exclusion 4)
Resp: 29.2

Req: Input UGUACGAUGCGUGCUGACAUGCGUCGUGCAGCAGGUGAUACAUGAGGAUCACCCAUGUCCUCAUUUGCUCGUCAUGU [Mat - Sensor v3 - Turn-off var 2 - D25] (puzzle: Sensor v3, turn-off variant 2)
Resp: 384

***
Req: // lookup apparent KD of MS2 coat protein for UAAUAAAGUGUGAGGAUAUGCUGGUCCUUGGAUCAGCAGAAGGCACAUGAGGAUCACCCAUGUAAUAUAUAAAU [Mat - Exclusion 4 - JL Mod - D55] (puzzle: Brourd's mod of Exclusion 4)
Resp: 70.4

Req: Queued: UAUAUGUGAGGAUAUCAGGUGUGCUAGCGAACUGGUACAUCUGAGAAGGCACAUGAGGAUCACCCAUGUAUCUU [Mat - Exclusion 4 - Mod of JL - D46] (puzzle: Exclusion 4)
Resp: 26.3

Req: Please do the same for UUUUAACAUGAGGAUCACCCAUGUGAGGAUAUCGAAAUUUAUAUUUAUAUUUAUAAAUCGAGAAGGCACAUUUU [JMF 92] (puzzle: Exclusion 1) as well.
Resp: 111

Req: Query UCUAGCUUUUUGCGUCAAGCAUUGAAGUCUGUUAUCGUUACAUGAGGAUCACCCAUGUUUGUUUUAUGUCGUCUUGA [JR_SV3TOV2_Sub100] (puzzle: Sensor v3, turn-off variant 2) next
Resp: 15.6

Values compiled from the supplement of paper PMC9170038.
